Source: patent US20260265195A1

Listed next: entries and their corresponding IC50.
Biological target: SARM1 (50-724) (Homo sapiens, UniProt Q6SZW1)
Construct: Purified SARM1 (50-724) with a final concentration of 2 nM
Assay: SARM1 (50-724) enzymatic assay (NMN-activated NAD+ hydrolysis, LC-MS/MS readout)
Conditions: purified SARM1 (50-724) 2 nM, 200 μM NMN activator, 100 μM NAD+ substrate, 1 h at room temperature, read-out: IC50 (SARM1 inhibitory activity)

Recorded IC50, per entry:
molecule=Cc1ccc2c(CO)c(C(=O)N(C)C3CCCC3)n(CC(N)=O)c2c1 value_observed="≥ 1000 nM"
molecule=O=C(c1nc2cc(C(F)(F)F)ccc2[nH]1)N(CCC1CNC1)c1cccc(Cl)c1Cl value_observed="101 to 500 nM"
molecule=COc1cc(OC)c2c(CO)c(C(=O)N(C)C3CCCC3)[nH]c2c1 value_observed="≥ 1000 nM"

Task: Give the reported IC50 for this molecule. O=C(c1nc2cc(C(F)(F)F)ccc2[nH]1)N(CC1CC(O)C1)c1cccc(Cl)c1Cl (centres unmarked)
Output: ≤ 100 nM

Task: Give the reported IC50 for this molecule. `O=C(c1nc2cc(Cl)cc(F)c2[nH]1)N(CC(F)(F)CO)c1cccc(F)c1Cl`
Output: ≤ 100 nM

Task: Give the reported IC50 for this molecule. `Cc1ccc2[nH]c(C(=O)N(C)C3CCCC3)c(CNc3cn[nH]c3)c2c1`
Output: ≥ 1000 nM

Task: Give the reported IC50 for this molecule. `Cc1ccc2[nH]c(C(=O)N(C)C3CCCC3)c(COc3nccs3)c2c1`
Output: 501 to 1000 nM

Task: Give the reported IC50 for this molecule. `CC1(c2ccc3[nH]c(C(=O)N(CCO)c4cccc(Cl)c4Cl)nc3c2)COC1`
Output: ≤ 100 nM

---

Target: SARM1 (50-724) (Homo sapiens)
Construct: Purified SARM1 (50-724) with a final concentration of 2 nM
Experiment: SARM1 (50-724) enzymatic assay (NMN-activated NAD+ hydrolysis, LC-MS/MS readout)
Details: purified SARM1 (50-724) 2 nM, 200 μM NMN activator, 100 μM NAD+ substrate, 1 h at room temperature, read-out: IC50 (SARM1 inhibitory activity)
pIC50: −log10 of the molar value.
Listed next: entries and their corresponding pIC50.

Recorded pIC50, per entry:
molecule=CN(C(=O)c1nc2cc(C(F)(F)F)ccc2[nH]1)c1ccncc1OC(F)(F)F value_observed="6.00 to 6.30"
molecule=Cc1ccc2[nH]c(C(=O)N(C)c3ccc(Cl)c(C(F)(F)F)c3)c(CO)c2c1 value_observed="≤ 6.00"

Task: Give the reported pIC50 for this molecule. `CS(=O)(=O)CCCN(C(=O)c1nc2cc(C(F)(F)F)ccc2[nH]1)c1cccc(Cl)c1Cl`
Output: ≥ 7.00

Task: Give the reported pIC50 for this molecule. `Cc1ccc2[nH]c(C(=O)N(C)c3cccc(Cl)c3Cl)nc2c1`
Output: ≥ 7.00

Task: Give the reported pIC50 for this molecule. `Cc1c(Cl)cccc1N(CCO)C(=O)c1nc2cc(C(F)(F)F)ccc2[nH]1`
Output: ≥ 7.00

Task: Give the reported pIC50 for this molecule. `CNCCN(C(=O)c1nc2cc(C)ccc2[nH]1)C1CCCC1`
Output: ≤ 6.00

Task: Give the reported pIC50 for this molecule. `O=C(c1nc2cc(C(F)(F)F)ccc2[nH]1)N(c1cn[nH]c1)c1cccc(Cl)c1Cl`
Output: ≥ 7.00

---

Biological target: SARM1 (50-724) (Homo sapiens)
Construct: Purified SARM1 (50-724) with a final concentration of 2 nM
Sequence (Q6SZW1 50-724): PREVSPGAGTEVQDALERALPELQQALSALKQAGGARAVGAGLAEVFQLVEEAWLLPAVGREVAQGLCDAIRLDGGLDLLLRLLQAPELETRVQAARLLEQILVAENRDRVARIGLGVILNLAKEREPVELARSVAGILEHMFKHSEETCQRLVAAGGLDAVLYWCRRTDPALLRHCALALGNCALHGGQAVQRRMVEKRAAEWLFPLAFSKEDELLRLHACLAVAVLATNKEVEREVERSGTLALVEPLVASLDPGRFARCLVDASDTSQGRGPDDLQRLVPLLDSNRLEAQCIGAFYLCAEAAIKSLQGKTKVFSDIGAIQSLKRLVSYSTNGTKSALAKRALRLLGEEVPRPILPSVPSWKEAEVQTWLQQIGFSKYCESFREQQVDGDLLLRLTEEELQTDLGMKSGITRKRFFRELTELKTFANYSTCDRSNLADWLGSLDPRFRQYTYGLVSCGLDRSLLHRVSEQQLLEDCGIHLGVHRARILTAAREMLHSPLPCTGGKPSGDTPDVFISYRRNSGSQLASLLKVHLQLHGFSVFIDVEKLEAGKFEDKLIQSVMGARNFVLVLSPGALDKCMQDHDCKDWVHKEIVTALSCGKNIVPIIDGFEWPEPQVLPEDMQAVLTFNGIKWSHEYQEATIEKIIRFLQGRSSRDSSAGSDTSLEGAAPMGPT
Assay: SARM1 (50-724) enzymatic assay (NMN-activated NAD+ hydrolysis, LC-MS/MS readout)
Conditions: purified SARM1 (50-724) 2 nM, 200 μM NMN activator, 100 μM NAD+ substrate, 1 h at room temperature, read-out: IC50 (SARM1 inhibitory activity)
pIC50: −log10 of the molar value.
Listed next: entries and their corresponding pIC50.

Recorded pIC50, per entry:
molecule=NC(=O)C(F)(F)CN(C(=O)c1nc2cc(Cl)cc(F)c2[nH]1)c1cccc(F)c1Cl value_observed="≥ 7.00"
molecule=O=C(c1nc2cc(C(F)(F)F)ccc2[nH]1)N(CC1(F)COC1)c1cccc(Cl)c1Cl value_observed="≥ 7.00"
molecule=Cc1c(Cl)cccc1N(C)C(=O)c1nc2cc(C(F)(F)F)ccc2[nH]1 value_observed="≥ 7.00"
molecule=O=C(c1nc2cc(C(F)(F)F)c(Cl)cc2[nH]1)N(CCO)c1cccc(Cl)c1Cl value_observed="6.30 to 7.00"
molecule=NC(=O)C(F)(F)CN(C(=O)c1nc2cc(Cl)cc(F)c2[nH]1)c1ccc(F)c(F)c1Cl value_observed="≥ 7.00"
molecule="Cc1ccc2[nH]c(C(=O)N(C)C3CC4CC4C3)nc2c1 (stereo not shown)" value_observed="≤ 6.00"

Task: Please indicate recorded pIC50 of CN1CCC(N(C(=O)c2nc3cc(C(F)(F)F)ccc3[nH]2)c2cccc(F)c2Cl)C1=O (racemic) measured with SARM1 (50-724) (Homo sapiens).
Output: ≥ 7.00

Task: Please indicate recorded pIC50 of `Cc1ccc2[nH]c(C(=O)N(C)C3CCCC3)c(CNc3ncco3)c2c1` measured with SARM1 (50-724) (Homo sapiens).
Output: ≥ 7.00

Task: Please indicate recorded pIC50 of `N#Cc1ccc(Cl)c(Cl)c1N(CCO)C(=O)c1nc2cc(C(F)(F)F)ccc2[nH]1` measured with SARM1 (50-724) (Homo sapiens).
Output: ≥ 7.00

Task: Please indicate recorded pIC50 of `CN(C(=O)c1[nH]c2cc(Br)ccc2c1CO)C1CCCC1` measured with SARM1 (50-724) (Homo sapiens).
Output: ≤ 6.00

Task: Please indicate recorded pIC50 of `COc1cc2[nH]c(C(=O)N(C)C3CCCC3)c(CO)c2cc1OC` measured with SARM1 (50-724) (Homo sapiens).
Output: ≤ 6.00

Task: Please indicate recorded pIC50 of `CC(C)(O)c1ccc2[nH]c(C(=O)N(CCO)c3cccc(Cl)c3Cl)nc2c1` measured with SARM1 (50-724) (Homo sapiens).
Output: ≥ 7.00

Task: Please indicate recorded pIC50 of `Cc1cccc2[nH]c(C(=O)N(C)C3CCCC3)c(CO)c12` measured with SARM1 (50-724) (Homo sapiens).
Output: ≤ 6.00

Task: Please indicate recorded pIC50 of CC1(O)CC(N(C(=O)c2nc3cc(C(F)(F)F)ccc3[nH]2)c2cccc(F)c2Cl)C1 (stereo not shown) measured with SARM1 (50-724) (Homo sapiens).
Output: 6.30 to 7.00

Task: Please indicate recorded pIC50 of `Cc1ccc2[nH]c(C(=O)N(C)c3cccc(Cl)c3Cl)c(C#N)c2c1` measured with SARM1 (50-724) (Homo sapiens).
Output: ≥ 7.00

Task: Please indicate recorded pIC50 of `Cc1ccc2[nH]c(C(=O)N(C)c3ccc(C#N)cc3Cl)c(CO)c2c1` measured with SARM1 (50-724) (Homo sapiens).
Output: ≤ 6.00

Task: Please indicate recorded pIC50 of `CC(C)(C)c1ccc2[nH]c(C(=O)N(CCO)c3cccc(F)c3Cl)nc2c1` measured with SARM1 (50-724) (Homo sapiens).
Output: ≥ 7.00

Task: Please indicate recorded pIC50 of `CC1(CN(C(=O)c2nc3cc(C(F)(F)F)ccc3[nH]2)c2cccc(Cl)c2Cl)COC1` measured with SARM1 (50-724) (Homo sapiens).
Output: ≥ 7.00

Task: Please indicate recorded pIC50 of `Cc1c(Cl)cncc1N(CC1(F)COC1)C(=O)c1nc2cc(C(F)(F)F)ccc2[nH]1` measured with SARM1 (50-724) (Homo sapiens).
Output: 6.30 to 7.00
